Test protocol: Body and organ weights of cynomolgus monkeys (Example 45)
Type: in vivo
Test parameters: day 71; escalating dose regimen
Measurement type: body weights (g)

substance="ISIS 417002: MOE gapmer, nucleobases 1275 to 1318 of SEQ ID NO: 1 (Table 8) (antisense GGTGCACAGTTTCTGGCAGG; MOE gapmer, wing and gap sizes not given here)" result_units=g reported_measurement=2727
substance="ISIS 416838: MOE gapmer, nucleobases 1018 to 1042 of SEQ ID NO: 1 (Table 6) (antisense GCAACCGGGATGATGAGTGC; MOE gapmer, wing and gap sizes not given here)" result_units=g reported_measurement=2869
substance="ISIS 416850: MOE gapmer, nucleobases 1275 to 1318 of SEQ ID NO: 1 (Table 8) (antisense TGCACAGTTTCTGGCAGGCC; MOE gapmer, wing and gap sizes not given here)" result_units=g reported_measurement=2769
substance="ISIS 416858: MOE gapmer, nucleobases 1275 to 1318 of SEQ ID NO: 1 (Table 8) (antisense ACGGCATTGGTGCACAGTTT; MOE gapmer, wing and gap sizes not given here)" result_units=g reported_measurement=2865
substance="ISIS 416864: MOE gapmer, nucleobases 1275 to 1318 of SEQ ID NO: 1 (Table 8) (antisense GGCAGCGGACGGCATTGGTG; MOE gapmer, wing and gap sizes not given here)" result_units=g reported_measurement=2942
